testMethodNotes: Observed AUCinfinity ICR mouse at 20 mg/kg, po measured upto 360 mins
Format: ADME, organism-based
Set-up: time < 360 min, dose 20 mg/kg, route po
conditionParameters: in vivo
experimentalEndpoint: AUC(0-inf) (ng·h/mL)
Quick note: give the figure in ng·h/mL, leave out the unit.

input: Reported AUC(0-inf) for `C=CCn1c(=O)c2cnc(Nc3ccc(N4CCN(C)CC4)cc3)nc2n1-c1cccc(C(C)(C)O)n1` : what is it?
output: 934

###

testMethodNotes: Half life in ICR mouse at 20 mg/kg, po measured upto 360 mins
Type: ADME, organism-based
conditionParameters: in vivo
experimentalEndpoint: half-life (h)
Respond numerically; units are h and should not be typed.

input: // query half-life value for entry `C=CCn1c(=O)c2cnc(Nc3ccc(N4CCN(C)CC4)cc3)nc2n1-c1cccc(C(C)(C)O)n1`
output: 7.15

###

testMethodNotes: Observed MRTinfinity ICR mouse at 10 mg/kg, iv measured upto 360 mins
Assay type: ADME, organism-based
conditionParameters: in vivo
experimentalEndpoint: MRT inf (min)
Number in min, nothing else.

input: I would be grateful if you could share the reported MRT inf for C=CCn1c(=O)c2cnc(Nc3ccc(N4CCN(CCCCNc5cccc6c5C(=O)N(C5CCC(=O)NC5=O)C6=O)CC4)cc3)nc2n1-c1cccc(C(C)(C)O)n1 (stereo unspecified) .
output: 56.6

###

testMethodNotes: Observed AUCinfinity ICR mouse at 10 mg/kg, iv measured upto 360 mins
Type: ADME, organism-based
Set-up: dose 10 mg/kg, time < 360 min, route iv
conditionParameters: in vivo
experimentalEndpoint: AUC(0-inf) (ng·h/mL)
Use ng·h/mL as the unit, but write only the number.

input: # get_value(readout='AUC(0-inf)', item= C=CCn1c(=O)c2cnc(Nc3ccc(N4CCN(CCCCNc5cccc6c5C(=O)N(C5CCC(=O)NC5=O)C6=O)CC4)cc3)nc2n1-c1cccc(C(C)(C)O)n1 (stereo unspecified) )
output: 4660

###

testMethodNotes: AUClast in ICR mouse at 20 mg/kg, po measured upto 360 mins
Format: ADME, organism-based
Set-up: time < 360 min, dose 20 mg/kg, route po
conditionParameters: in vivo
experimentalEndpoint: AUC(0-t) at 6 h (ng·h/mL)
Answer with a number only, understood to be in ng·h/mL.

input: What value of AUC(0-t) at 6 h has been recorded for this entry: C=CCn1c(=O)c2cnc(Nc3ccc(N4CCN(C)CC4)cc3)nc2n1-c1cccc(C(C)(C)O)n1 [ADAVOSERTIB]
output: 915

###

testMethodNotes: Cmax in ICR mouse at 20 mg/kg, po measured upto 360 mins
Type: ADME, organism-based
Parameters: time < 360 min, dose 20 mg/kg, route po
conditionParameters: in vivo
experimentalEndpoint: Cmax (ng/mL)
A number alone suffices; assume ng/mL.

input: What does the record list as Cmax for `C=CCn1c(=O)c2cnc(Nc3ccc(N4CCN(C)CC4)cc3)nc2n1-c1cccc(C(C)(C)O)n1` ?
output: 681

###

testMethodNotes: AUClast in ICR mouse at 10 mg/kg, iv measured upto 360 mins
Format: ADME, organism-based
Design: dose 10 mg/kg, time < 360 min, route iv
conditionParameters: in vivo
experimentalEndpoint: AUC(0-t) at 6 h (ng·h/mL)
Your answer is read as ng·h/mL, so omit the unit and give the number.

input: Bench note: what AUC(0-t) at 6 h did C=CCn1c(=O)c2cnc(Nc3ccc(N4CCN(CCCCNc5cccc6c5C(=O)N(C5CCC(=O)NC5=O)C6=O)CC4)cc3)nc2n1-c1cccc(C(C)(C)O)n1 (stereo unspecified) show?
output: 4580
